- Test system: 786-0 renal
- protocol_details: NCI tumour cell line growth inhibition, 48 h
*1 amine or outer side, *2 acyl side, *3 side chain or, on linkers, in order; H or OH if unused. Where a SMILES comes first, the peptide text is derived from it. Bridges are numbered along the chain shown (N, C = ends). [ ]: non-standard residue; d: D form. Adda = CO[C@@H](Cc1ccccc1)[C@@H](C)/C=C(C)/C=C/[C@H](N[*:1])[C@H](C)C(=O)[*:2]; dAsp(3S-Me) = C[C@H](C(=O)[*:3])[C@@H](N[*:1])C(=O)[*:2]; d(γGlu) = O=C(O)[C@@H](CCC(=O)[*:2])N[*:1]; NMeDha = C=C(NC)C(=O)O
assay_metric: GI50

{"compound": "FC(F)(F)c1nnn[n-]1.[Au+].c1ccc([PH+](c2ccccc2)c2ccccc2)cc1", "system_tested": "786-0 renal", "result": "1840 nM"}
{"compound": "C=C1C(=O)N[C@H](C)C(=O)N[C@@H](CC(C)C)C(=O)N[C@@H](C(=O)O)[C@H](C)C(=O)N[C@@H](CCCN=C(N)N)C(=O)N[C@@H](/C=C/C(C)=C/[C@H](C)[C@H](Cc2ccccc2)OC)[C@H](C)C(=O)N[C@@H](C(=O)O)CCC(=O)N1C (R[Adda][d(γGlu)][NMeDha][dA]L[dAsp(3S-Me)]-OH; lactam N-7)", "system_tested": "786-0 renal", "result": "> 5000 nM"}
{"compound": "O=c1c2ccc3cccc4c(=O)c5ccc6cccc1c6c5-c2c34", "system_tested": "786-0 renal", "result": "> 50000 nM"}
{"compound": "O=C(/C=C/c1ccc(Cl)cc1)/C=C/c1cc2ccccc2[nH]c1=O", "system_tested": "786-0 renal", "result": "2020 nM"}

This collection of values is drawn from PubChem BioAssay (NCI).
